Target: baNadD (Bacillus anthracis)
Sequence (C3L5T6 whole entry, looked up): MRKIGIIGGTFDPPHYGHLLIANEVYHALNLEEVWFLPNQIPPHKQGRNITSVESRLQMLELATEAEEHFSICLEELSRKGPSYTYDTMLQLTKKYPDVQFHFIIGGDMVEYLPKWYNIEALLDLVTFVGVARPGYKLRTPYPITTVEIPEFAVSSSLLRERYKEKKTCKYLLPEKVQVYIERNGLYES
Experiment: biochemical
Type: biochemical
property_name: […]. anthracis

> print(dat)
                                    compound  result
 1  O=C(O)CC(NC(=O)c1ccccc1NC(=O)c1ccco1)C(=O)O (stereo not drawn) [compound 089]     37%
 2  O=C(O)CCNc1ccc(Br)cc1C(=O)O [compound 087]      0%
 3  NS(=O)(=O)c1ccc(NC(=S)Nc2ccc(Cl)cc2F)cc1 [compound 084]      0%
 4  NC(=O)c1ccc(NC(=O)COc2ccc3ccccc3c2)cc1 [compound 097]     63%
 5  O=C(CSc1nnc[nH]1)Nc1ccc(I)cc1 [compound 129]      0%
 6  OCC#CCSc1nnc(-c2cccc(Br)c2)o1 [compound 255]      0%
 7  Cn1ccc(NC(=O)Nc2ccc(Cl)cc2Cl)n1 [compound 091]      0%
 8  O=C(N/N=C/c1ccccc1Cl)c1cccnc1 [compound 202]     32%
 9  O=C(NCCNc1ccc([N+](=O)[O-])cc1)c1ccccc1Br [compound 260]      0%
10  COc1ccc(S(=O)(=O)Nc2ccc(CC#N)cc2)cc1C [compound 170]      0%
11  COc1c(C)cc(Br)cc1C(=O)Nc1ccc(S(N)(=O)=O)cc1 [compound 032]      8%
12  CC(=O)c1cccc(NS(=O)(=O)c2cccc(C(=O)O)c2)c1 [compound 240]      0%
13  O=S(=O)(Nc1ccc(Br)c(Cl)c1)c1cccs1 [compound 203]      0%
14  O=C(O)CN(c1ccccc1)S(=O)(=O)c1ccccc1[N+](=O)[O-] [compound 115]      0%
15  CCCn1cc(C(CC(=O)O)C(=O)O)c2ccccc21 (stereo not drawn) [compound 110]      0%
16   Clc1ccc(CNc2nc[nH]n2)cc1 [compound 305]      0%
17  O=[N+]([O-])c1cccc(S(=O)(=O)Nn2cnnc2)c1 [compound 241]     59%
18  CCOC(=O)c1ccc(N/C=C2\C(=O)Oc3ccccc3C2=O)cc1 [compound 220]      0%
19  O=C(O)CSc1nc2ccccc2n1CC(=O)O [compound 169]      0%
20  O=C(NCc1ccccc1)Nc1ccc2nsnc2c1 [compound 124]      0%
21  CSc1cccc(NS(=O)(=O)c2ccc(Cl)cc2)c1 [compound 306]      0%
